Sourced from paper PMC5432571

- system-name: homomeric α1 GlyR (Homo sapiens, UniProt P23415)
- Construct: expressed in transfected cells; host or cells: CHO cells
- Sequence (P23415 29-449 isoform P23415-2 limits assumed): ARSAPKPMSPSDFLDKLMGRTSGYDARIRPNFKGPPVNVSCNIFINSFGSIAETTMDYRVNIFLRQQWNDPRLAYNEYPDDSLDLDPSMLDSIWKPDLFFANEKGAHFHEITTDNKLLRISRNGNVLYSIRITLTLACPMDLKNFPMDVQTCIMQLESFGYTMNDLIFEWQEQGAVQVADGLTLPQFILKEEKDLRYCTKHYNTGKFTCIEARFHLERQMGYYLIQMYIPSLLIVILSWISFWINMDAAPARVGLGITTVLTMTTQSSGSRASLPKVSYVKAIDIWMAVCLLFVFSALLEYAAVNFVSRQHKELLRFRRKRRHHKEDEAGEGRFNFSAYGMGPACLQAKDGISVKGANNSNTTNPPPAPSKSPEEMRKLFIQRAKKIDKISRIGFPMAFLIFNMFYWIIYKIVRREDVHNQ
- assay-name: Whole-cell patch-clamp of glycine-induced currents, α1 GlyR expressed in CHO cells
- Type: cell-based
- condition-description: −80 mV; glycine 100 μM; ramp protocol; mean ± SEM; read-out: IC50 of NFA
- Experimental: The experiments were carried out on cultured Chinese hamster ovary (CHO) cells obtained from the American Type Tissue Culture Collection (ATCC, Molsheim, France) that were maintained in culture conditions as previously described (Mukhtarov et al., [2013]; Maleeva et al., [2015]). One day before transfection, cells were plated on the cover slips (12 mm in diameter) and placed inside 35-mm cell culture dishes with 2 ml of medium. […]
pIC50: −log10 of the molar value.

compound | pIC50
O=C(O)c1cccnc1Nc1cccc(C(F)(F)F)c1 [NFA, Niflumic acid] | 3.57
